protocol-notes: self-splicing fitness, log relative to wild type (ln ratio); higher = more splicing; Tetrahymena group I intron in knt gene, E. coli kanamycin selection, DiMSum; sequences stand for … in CUCUCU…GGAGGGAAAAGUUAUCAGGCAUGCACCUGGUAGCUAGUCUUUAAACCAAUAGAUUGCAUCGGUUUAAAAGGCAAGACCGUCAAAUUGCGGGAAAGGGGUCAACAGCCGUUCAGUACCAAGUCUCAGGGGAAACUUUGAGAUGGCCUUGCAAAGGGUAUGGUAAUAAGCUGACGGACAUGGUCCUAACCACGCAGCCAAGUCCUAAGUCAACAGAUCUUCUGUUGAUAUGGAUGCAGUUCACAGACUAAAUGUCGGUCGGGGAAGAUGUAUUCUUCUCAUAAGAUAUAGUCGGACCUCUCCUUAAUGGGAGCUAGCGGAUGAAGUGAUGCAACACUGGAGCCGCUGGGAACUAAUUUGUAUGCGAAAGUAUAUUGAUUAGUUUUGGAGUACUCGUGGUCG;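 note: selection with 25 µg/mL kanamycin versus none on LB agar overnight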
experimental-setup: 37 °C
parameter-measured: self-splicing fitness (ln)
// print number alone

## Input Quick one: self-splicing fitness (ln) of `CAUUAGCAAUAUUACGCUUG` ?
## Output -2.6

## Input What do we get for `UAGAAGCAAUAUUACGAUUG` ?
## Output -0.442

====

Below is a list of entries, each paired with its recorded self-splicing fitness (ln) value.
protocol-notes: self-splicing fitness, log relative to wild type (ln ratio); higher = more splicing; Tetrahymena group I intron in knt gene, E. coli kanamycin selection, DiMSum; sequences stand for … in CUCUCU…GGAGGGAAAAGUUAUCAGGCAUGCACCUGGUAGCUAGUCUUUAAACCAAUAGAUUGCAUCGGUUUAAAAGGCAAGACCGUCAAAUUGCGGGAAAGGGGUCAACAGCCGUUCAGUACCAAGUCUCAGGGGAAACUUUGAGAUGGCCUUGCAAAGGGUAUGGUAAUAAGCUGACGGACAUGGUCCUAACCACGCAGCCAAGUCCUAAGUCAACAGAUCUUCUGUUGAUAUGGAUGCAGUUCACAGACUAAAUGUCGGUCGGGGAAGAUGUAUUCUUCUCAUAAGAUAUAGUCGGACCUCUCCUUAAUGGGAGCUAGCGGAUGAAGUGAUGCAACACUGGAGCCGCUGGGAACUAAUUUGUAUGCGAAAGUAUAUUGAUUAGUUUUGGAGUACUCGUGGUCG
experimental-setup: 30 °C
Hey, just send me the number, nothing else.

Record excerpt, results attached:
UGAUAGCAAUAUUACGAUCU = 0.499
GCGAAGCAAUAUUACGAGCC = -3.17
CUACAGCAAUAUUACGUCAA = -3.91
GGCAAGCAAUAUUACGAAUU = -0.859

## Input Which value of self-splicing fitness (ln) has been reported for `CCCGAGCAAUAUUACGGGCU` in the records?
## Output -3.98

## Input Proceed to `CGCCAGCAAUAUUACGCAAC`
## Output -3.25

## Input Here is the next sequence: `GAUCAGCAAUAUUACGUACG`
## Output -1.5

## Input Okay, and `CUCAAGCAAUAUUACGAUCU` ?
## Output -3.53

## Input What do we get for `ACGUAGCAAUAUUACGAACU` ?
## Output -0.677

====

In this section we review reported self-splicing fitness (ln) values for a set of sequences.
protocol-notes: self-splicing fitness, log relative to wild type (ln ratio); higher = more splicing; Tetrahymena group I intron in knt gene, E. coli kanamycin selection, DiMSum; sequences stand for … in CUCUCU…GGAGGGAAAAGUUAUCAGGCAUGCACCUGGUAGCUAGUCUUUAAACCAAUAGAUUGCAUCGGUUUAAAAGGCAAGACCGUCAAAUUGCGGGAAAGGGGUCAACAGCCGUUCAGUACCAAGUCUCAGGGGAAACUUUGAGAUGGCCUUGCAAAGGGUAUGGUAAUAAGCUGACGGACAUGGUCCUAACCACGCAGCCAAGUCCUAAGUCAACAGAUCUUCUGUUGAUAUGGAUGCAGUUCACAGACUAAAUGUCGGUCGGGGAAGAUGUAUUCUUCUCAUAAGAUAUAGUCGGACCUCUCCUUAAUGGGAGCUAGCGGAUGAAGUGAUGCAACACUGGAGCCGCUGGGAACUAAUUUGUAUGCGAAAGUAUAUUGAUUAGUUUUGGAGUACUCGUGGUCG
experimental-setup: 30 °C
// response body must contain only the number

CGUGAGCAAUAUUACGUUAA = -4
UUGGAGCAAUAUUACGUCGA = -2.6
CUAAAGCAAUAUUACGUCUG = 0.155

## Input Data request, read-out self-splicing fitness (ln), for `AAUUAGCAAUAUUACGGACU`
## Output -0.43

## Input Now consider `CCAGAGCAAUAUUACGACGU` .
## Output -3.74

====

protocol-notes: self-splicing fitness, log relative to wild type (ln ratio); higher = more splicing; Tetrahymena group I intron in knt gene, E. coli kanamycin selection, DiMSum; sequences stand for … in CUCUCU…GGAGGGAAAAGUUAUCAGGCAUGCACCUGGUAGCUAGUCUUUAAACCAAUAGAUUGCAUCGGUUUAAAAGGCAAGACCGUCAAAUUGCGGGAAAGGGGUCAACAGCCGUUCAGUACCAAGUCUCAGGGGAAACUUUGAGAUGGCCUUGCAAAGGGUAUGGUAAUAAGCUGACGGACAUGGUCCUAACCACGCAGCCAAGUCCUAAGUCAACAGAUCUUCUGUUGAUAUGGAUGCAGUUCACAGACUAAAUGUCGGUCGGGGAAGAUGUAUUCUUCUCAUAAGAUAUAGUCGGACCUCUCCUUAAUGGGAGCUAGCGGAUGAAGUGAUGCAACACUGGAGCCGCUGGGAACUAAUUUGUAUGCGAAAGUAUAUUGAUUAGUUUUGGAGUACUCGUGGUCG
experimental-setup: 30 °C
self-splicing fitness (ln) listing for selected sequences.
Write the value as a bare number.

Previously resolved entries follow.
GCUAAGCAAUAUUACGUGCU = -2.4
UUAGAGCAAUAUUACGGUGG = -1.95
UAACAGCAAUAUUACGACUC = -0.882
CAUGAGCAAUAUUACGGGGC = -4.13
UUUCAGCAAUAUUACGCAAC = -3.51
AGGAAGCAAUAUUACGUCAG = -2.97
UGGAAGCAAUAUUACGUAUG = -1.96
UUAUAGCAAUAUUACGACAU = -2.47

## Input Fill blank: measured self-splicing fitness (ln) of the sequence `UAGCAGCAAUAUUACGCAGU` is ____.
## Output -3.58

## Input Also `CUAUAGCAAUAUUACGAGAU` , if possible.
## Output -3.91

## Input Item: `GUUCAGCAAUAUUACGACAC`
## Output -0.34

## Input Lookup `CCAGAGCAAUAUUACGUGCG`
## Output -1.59

====

self-splicing fitness (ln) values for the sequences below.
protocol-notes: self-splicing fitness, log relative to wild type (ln ratio); higher = more splicing; Tetrahymena group I intron in knt gene, E. coli kanamycin selection, DiMSum; sequences stand for … in CUCUCU…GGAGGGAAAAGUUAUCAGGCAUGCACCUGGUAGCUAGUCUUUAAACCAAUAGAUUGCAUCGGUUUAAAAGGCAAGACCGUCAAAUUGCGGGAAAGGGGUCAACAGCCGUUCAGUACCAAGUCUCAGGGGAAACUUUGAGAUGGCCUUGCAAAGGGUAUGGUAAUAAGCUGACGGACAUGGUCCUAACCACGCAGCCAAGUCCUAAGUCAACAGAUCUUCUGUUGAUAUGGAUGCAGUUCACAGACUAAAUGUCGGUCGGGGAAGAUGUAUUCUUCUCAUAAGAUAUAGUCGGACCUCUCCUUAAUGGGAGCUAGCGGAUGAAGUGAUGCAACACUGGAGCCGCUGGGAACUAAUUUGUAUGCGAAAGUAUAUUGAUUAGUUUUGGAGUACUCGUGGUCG
experimental-setup: 30 °C
No unit in the answer, please; the number alone is enough.

CUCGAGCAAUAUUACGAUCA = -2.04
UCCCAGCAAUAUUACGGAGC = -1.44
CUGAAGCAAUAUUACGCCGU = -2.92
GCUCAGCAAUAUUACGCCGC = -3.66
ACUAAGCAAUAUUACGUGGC = -3.03

## Input What value of self-splicing fitness (ln) has been reported for the following sequence? `GCUCAGCAAUAUUACGUCAG`
## Output -4.87

====

protocol-notes: self-splicing fitness, log relative to wild type (ln ratio); higher = more splicing; Tetrahymena group I intron in knt gene, E. coli kanamycin selection, DiMSum; sequences stand for … in CUCUCU…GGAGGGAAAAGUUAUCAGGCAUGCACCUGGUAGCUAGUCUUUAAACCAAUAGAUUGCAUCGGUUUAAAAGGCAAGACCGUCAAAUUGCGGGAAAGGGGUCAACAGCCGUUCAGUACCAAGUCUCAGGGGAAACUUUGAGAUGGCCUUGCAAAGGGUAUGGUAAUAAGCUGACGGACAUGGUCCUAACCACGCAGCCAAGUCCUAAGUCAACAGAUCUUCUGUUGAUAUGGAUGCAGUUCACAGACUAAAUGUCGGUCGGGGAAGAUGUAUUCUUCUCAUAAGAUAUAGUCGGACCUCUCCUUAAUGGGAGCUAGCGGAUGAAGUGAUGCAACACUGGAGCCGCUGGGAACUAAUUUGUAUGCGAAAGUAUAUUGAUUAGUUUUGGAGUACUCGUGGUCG
experimental-setup: 37 °C
parameter-measured: self-splicing fitness (ln)
Number only, please.

## Input Sample `CCGGAGCAAUAUUACGUCGU` — what was its self-splicing fitness (ln)?
## Output -1.51

## Input Same thing, different sequence: `GUAUAGCAAUAUUACGCGUA`
## Output -1.41

## Input Cool, now `GGAUAGCAAUAUUACGGUCG`
## Output 0.199

## Input Here is the next sequence: `CAAAAGCAAUAUUACGACGU`
## Output 0.0132

## Input Next entry: `CGUGAGCAAUAUUACGUAGU`
## Output -2.19
